Each recorded value in this set is attributed to paper PMC10915964.

# targetOfAssay: 15N-labeled PHD1 (KDM5A) (Homo sapiens, UniProt P29375)
# Construct: PHD1(S287-E344) construct; GST (N, cleaved yes); made in house; host or cells: E. coli BL21 (DE3), M9 minimal media with 15N ammonium chloride
# experimentDescription: 2D 1H-15N HSQC NMR binding assay
# assayContext: 50 μM 15N PHD1, 1 mM compound
# From the text: The binding of the ChemBridge screen hits to PHD1 was further evaluated using 2D ^1H–^15N HSQC NMR spectroscopy. This direct binding method allowed us to monitor binding by observing any ligand-induced changes in the previously assigned ^1H–^15N PHD1 amino acid resonances.[12] […] Compound 715 958 was insoluble in the NMR buffer at this concentration and was not evaluated. […]
assayReadout: average shifts (CSP on PHD1)

For each entry beneath this line, provide reported average shifts (CSP on PHD1).
1. Cc1oc2ccc(NS(=O)(=O)c3ccc(C(=O)O)cc3)cc2c1C(=O)OCc1ccccc1 [990 099]
2. CCc1nnc(NS(=O)(=O)c2ccc(NC(=O)c3ccc(OC)c(OC)c3)cc2)s1 [988 385]
3. CSc1nnc2c(n1)OC(c1ccncc1)Nc1ccccc1-2 (centres unmarked) [516 969]
4. O=C(C1CC1)N1CCc2sc(S(=O)(=O)Nc3cccc(Cl)c3F)cc2C1 [990 856]

Completion:
["0.0025–0.0033 ppm", "≤ 0.002 ppm", "0.0025–0.0033 ppm", "≤ 0.002 ppm"]

Quick note, average shifts (CSP on PHD1) for Cc1c(CCC(=O)N2CCCC2C(=O)O)c(=O)oc2c(C)c(O)ccc12 (centres unmarked) [991 830] landed at ≤ 0.002 ppm

---

# targetOfAssay: GST-PHD1 (PHD1 finger of KDM5A) (Homo sapiens, UniProt P29375)
# Construct: GST-PHD1(S287-E344); made in house; host or cells: E. coli BL21 (DE3), pET41a
# Sequence (P29375 287-344): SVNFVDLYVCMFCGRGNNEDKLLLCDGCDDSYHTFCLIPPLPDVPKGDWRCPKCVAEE
# experimentDescription: Competitive-binding fluorescence polarization (FP) assay, displacement of 5-FAM H3K4me0 10-mer from GST-PHD1
# assayContext: 1 mM compound; quadruplicate (n = 1 for R1 = OBn; n = 2 for R1 = Me); read-out: %I at 1 mM
# Description: Fluorescence polarization (FP) has been widely used as a biophysical method to detect and quantify disruptions in protein–protein and protein–peptide interactions.[33,34] […] Fluorescence polarization high-throughput screening […] For FP-based assay optimization, the assay signal dynamic range was evaluated using the negative and positive control buffers with varying amounts of GST-PHD1 (0.5, 1, 1.5, or 2 μM) in the presence or absence of 0.1% BGG. […]
Exercise: for every item that follows, state its recorded inhibition at 1000 µM.
One number for each entry, in %.

Guide cases for inhibition at 1000 µM, answers given:
- smilesStr: "COC(=O)c1cccc(S(=O)(=O)Nc2ccc3oc(C)c(C(C)=O)c3c2)c1"
  numericResult: 4
- smilesStr: "CC(=O)c1c(C)oc2ccc(NS(=O)(=O)c3cccc(C(N)=O)c3)cc12"
  numericResult: 9
- smilesStr: "CC(=O)c1c(C)oc2ccc(NS(=O)(=O)c3cccc(C(=O)O)c3)cc12"
  numericResult: 45
- smilesStr: "CC(=O)c1c(C)oc2ccc(NS(=O)(=O)c3cccc(Cl)c3)cc12"
  numericResult: 13
- smilesStr: "CC(=O)c1c(C)oc2ccc(NS(=O)(=O)c3ccc(C(=O)O)cc3)cc12"
  numericResult: 38
- smilesStr: "Cc1oc2ccc(NS(=O)(=O)c3ccccc3)cc2c1C(=O)OCc1ccccc1"
  numericResult: 6
- smilesStr: "CC(=O)c1c(C)oc2ccc(NS(=O)(=O)c3ccc(C(N)=O)cc3)cc12"
  numericResult: 12
- smilesStr: "CCOC(=O)c1ccc(S(=O)(=O)Nc2ccc3oc(C)c(C(C)=O)c3c2)cc1"
  numericResult: 11

For each entry beneath this line, provide reported inhibition at 1000 µM.
1. CC(=O)c1c(C)oc2ccc(N(C(C)=O)S(=O)(=O)c3ccc(C(=O)O)cc3)cc12
2. Cc1oc2ccc(NS(=O)(=O)c3ccc(C(=O)O)cc3)cc2c1C(=O)OCc1ccccc1

Completion:
1: 30; 2: 45
